Read-out record for UniProt P00519: IC50

Asked: Query: IC50; subject: CSc1n[nH]c2nc(Nc3ccc(N4CCOCC4)cc3)nc(Nc3ccc4nc[nH]c4c3)c12
Given back: ≤ 50 nM

Asked: What IC50 value was documented for this compound, CS(=O)(=O)c1n[nH]c2nc(Nc3ccc(N4CCCC(CO)C4)cc3)nc(NC3CC3)c12 (stereo not shown) ?
Given back: ≤ 10 nM

Asked: Please give the measured IC50 for this compound: N[C@H]1CC[C@@H](Nc2nc(Nc3ccc(N4CCOCC4)cc3)nc3[nH]ncc23)CC1
Given back: ≤ 10 nM

Asked: Data request, read-out IC50, for CC(C)(C)Nc1nc(Nc2ccc(N3CCOCC3)cc2)nc2[nH]nc(S(C)(=O)=O)c12
Given back: ≤ 10 nM

Asked: Record request: IC50 value, item CS(=O)(=O)c1n[nH]c2nc(Nc3ccc(N4CCCC(C(N)=O)C4)cc3)nc(NC3CC3)c12 (stereo not shown)
Given back: ≤ 10 nM

New cases:
Asked: What does the data say about its IC50? Entry: CS(=O)(=O)c1n[nH]c2nc(Nc3ccc(N4CCS(=O)(=O)CC4)cc3)nc(NC3CC3)c12
Given back: ≤ 10 nM

Asked: So what does the record say about IC50 for CS(=O)(=O)c1n[nH]c2nc(Nc3ccc(N4CCOCC4)cc3)nc(NCCCCN)c12 ?
Given back: ≤ 50 nM

Asked: For the compound shown here, CNC(=O)COc1cccc(Nc2nc(NC3CC3)c3c(S(C)(=O)=O)n[nH]c3n2)c1 , give the reported IC50.
Given back: ≤ 50 nM

Asked: I am curious: what IC50 value has been reported for CS(=O)(=O)c1n[nH]c2nc(Nc3ccc(N4CCNCC4)cc3)nc(NC3CC3)c12 ?
Given back: ≤ 10 nM

Asked: Consider the compound CS(=O)(=O)c1n[nH]c2nc(Nc3ccc(N4CCCC(C(=O)N5CCOCC5)C4)cc3)nc(NC3CC3)c12 (stereo not shown) and give its measured IC50.
Given back: ≤ 10 nM

###

Tested on: Human mast cell line LAD cells
TEST_DESCRIPTION: Degranulation test using human mast cell line LAD cells
Type: cell-based
CONDITION_SUMMARY: IgE-sensitized LAD cells, anti-human IgE stimulation, β-hexosaminidase release, read-out: degranulation inhibitory activity IC50
Each record here notes measured IC50.

Solved cases (7 shown):
Asked: API: value(readout= IC50, system= Human mast cell line LAD cells, query= CN(C)C(=O)C1CCN(c2ccc(Nc3nc(NC4CC4)c4c(S(C)(=O)=O)n[nH]c4n3)cc2)CC1 )
Given back: ≤ 0.1 µM

Asked: Give Human mast cell line LAD cells IC50 for CN1CCN(c2ccc(Nc3nc(NC4CC4)c4c(S(C)(=O)=O)n[nH]c4n3)cc2)CC1
Given back: ≤ 0.1 µM

Asked: IC50 of CS(=O)(=O)c1n[nH]c2nc(Nc3ccc(N4CCNCC4)cc3)nc(NC3CC3)c12 on Human mast cell line LAD cells?
Given back: ≤ 0.1 µM

Asked: Fill in the recorded IC50 for this compound, with Human mast cell line LAD cells as test system: CS(=O)(=O)c1n[nH]c2nc(Nc3ccc(N4CCC(=O)CC4)cc3)nc(NC3CC3)c12
Given back: ≤ 0.1 µM

Asked: Requested read-out IC50, target or system Human mast cell line LAD cells, entry C[S+]([O-])c1n[nH]c2nc(Nc3ccc(N4CCOCC4)cc3)nc(NC3CC3)c12 (centres unmarked)
Given back: ≤ 0.1 µM

Asked: Given the entry CS(=O)(=O)c1n[nH]c2nc(Nc3ccc(N4CCOCC4)cc3)nc(NC3CC3)c12 , what IC50 was observed with Human mast cell line LAD cells?
Given back: 0.024 µM

Asked: Record lookup: for Human mast cell line LAD cells, what IC50 belongs to CSc1n[nH]c2nc(Nc3ccc(N4CCOCC4)cc3)nc(N[C@H]3CC[C@@H](N)CC3)c12 ?
Given back: 0.019 µM

---
Asked: Lab note: need IC50 for CS(=O)(=O)c1n[nH]c2nc(Nc3ccc(N4CCOCC4)cc3)nc(NCCCCN)c12 on Human mast cell line LAD cells, anyone have it?
Given back: ≤ 0.1 µM

###

pIC50: −log10 of the molar value.
Entries with reported pIC50 on Abl (Homo sapiens)
Sequence (P00519 whole entry, species assumed): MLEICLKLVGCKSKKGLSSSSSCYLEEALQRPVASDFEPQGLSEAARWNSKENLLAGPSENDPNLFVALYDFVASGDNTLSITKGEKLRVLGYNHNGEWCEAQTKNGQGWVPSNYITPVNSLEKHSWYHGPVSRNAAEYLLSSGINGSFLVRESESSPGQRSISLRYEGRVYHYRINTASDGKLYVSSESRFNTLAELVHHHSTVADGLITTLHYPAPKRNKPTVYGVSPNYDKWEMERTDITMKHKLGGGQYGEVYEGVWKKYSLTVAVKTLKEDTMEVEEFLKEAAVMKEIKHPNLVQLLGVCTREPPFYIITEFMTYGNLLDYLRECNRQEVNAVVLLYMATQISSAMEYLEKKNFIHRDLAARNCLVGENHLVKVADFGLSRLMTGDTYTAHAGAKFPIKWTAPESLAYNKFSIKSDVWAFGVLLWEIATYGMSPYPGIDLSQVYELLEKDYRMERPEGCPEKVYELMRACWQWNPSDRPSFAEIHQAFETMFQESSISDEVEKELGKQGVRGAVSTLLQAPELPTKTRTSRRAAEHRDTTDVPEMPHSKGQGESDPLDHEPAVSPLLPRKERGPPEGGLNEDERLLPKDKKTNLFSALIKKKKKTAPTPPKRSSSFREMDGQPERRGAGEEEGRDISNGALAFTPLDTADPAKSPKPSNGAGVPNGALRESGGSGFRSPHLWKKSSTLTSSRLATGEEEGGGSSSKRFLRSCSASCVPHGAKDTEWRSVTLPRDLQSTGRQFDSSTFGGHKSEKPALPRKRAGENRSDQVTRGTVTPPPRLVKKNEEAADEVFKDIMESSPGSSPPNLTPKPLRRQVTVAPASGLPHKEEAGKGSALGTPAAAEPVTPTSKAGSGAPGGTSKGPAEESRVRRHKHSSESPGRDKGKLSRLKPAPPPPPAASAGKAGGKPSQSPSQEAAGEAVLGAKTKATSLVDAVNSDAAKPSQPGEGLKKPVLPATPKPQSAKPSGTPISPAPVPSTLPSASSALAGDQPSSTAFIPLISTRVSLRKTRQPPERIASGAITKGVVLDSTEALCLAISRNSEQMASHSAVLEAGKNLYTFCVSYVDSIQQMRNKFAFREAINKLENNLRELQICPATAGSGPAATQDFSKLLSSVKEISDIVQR

Examples with answers:
Asked: What value of pIC50 on Abl (Homo sapiens) does CS(=O)(=O)c1n[nH]c2nc(Nc3ccc(N4CCOCC4)cc3)nc(NCCCC(N)=O)c12 [Compound 60] have?
Given back: ≥ 7.30

Asked: // fetch Abl (Homo sapiens) pIC50 for CS(=O)(=O)c1n[nH]c2nc(Nc3ccc(N4CCC(CO)CC4)cc3)nc(NC3CC3)c12 [Compound 126]
Given back: ≥ 8.00

Asked: So what pIC50 did CS(=O)(=O)c1n[nH]c2nc(Nc3ccc4[nH]cnc4c3)nc(NC3CC3)c12 [Compound 21] get with Abl (Homo sapiens)?
Given back: ≥ 7.30

Asked: Entry CS(=O)(=O)c1n[nH]c2nc(Nc3ccc(N4CCOCC4)cc3)nc(Nc3ccccc3C(N)=O)c12 [Compound 188] , system Abl (Homo sapiens): what pIC50 was measured?
Given back: ≥ 7.30

Asked: Item CC(C)Sc1n[nH]c2nc(Nc3ccc(N4CCOCC4)cc3)nc(N[C@H]3CC[C@@H](N)CC3)c12 [Compound 119] with Abl (Homo sapiens) - pIC50?
Given back: ≥ 8.00

Next:
Asked: Can you look up pIC50 on Abl (Homo sapiens) for CCSc1n[nH]c2nc(Nc3ccc(N4CCOCC4)cc3)nc(NC3CC3)c12 [Compound 108] ?
Given back: ≥ 7.30

Asked: Entry CS(=O)(=O)c1n[nH]c2nc(Nc3ccc(N4CCOCC4)cc3)nc(NC3CC3)c12 [Compound 6] , system Abl (Homo sapiens): what pIC50 was measured?
Given back: ≥ 7.30

Asked: Form field - read-out: pIC50; system: Abl (Homo sapiens); submitted item: CS(=O)(=O)c1n[nH]c2nc(Nc3ccc(N4CCOCC4)cc3)nc(NC3CCCC3)c12 [Compound 103]
Given back: ≥ 7.30
